Procedure details: Toxicity liver stage against HepG2, at 10uM
Assay type: cell-based
Set-up: test concentration 10 uM, cell line HepG2-A16-CD81EGFP
Cond: human, HepG2-A16-CD81EGFP cells; read-out: INHIBITION
Recorded endpoint: cytotoxicity at 10 µM (%)
Numbers only here, please. The scale is %.

Task: Quickly give me recorded cytotoxicity at 10 µM for Cc1cc(OCC(=O)NS(=O)(=O)c2c(C)noc2C)ccc1Cl
Output: -2.07

Task: Fill in reported cytotoxicity at 10 µM for this entry: CCn1ncc2c1C(COC)N(C(=O)CCc1ccccc1)CC2 (centres undefined)
Output: -96.8

Task: Could you please provide reported cytotoxicity at 10 µM for CC(C)CCN1CCCC12Cc1ccccc1CNC2=O (centres undefined) ? Thanks!
Output: 7.61

Task: Answer with reported cytotoxicity at 10 µM of Cn1nnc2cc(C(=O)NS(=O)(=O)c3ccc(F)cc3)ccc21
Output: 5.46

Task: Could you please provide reported cytotoxicity at 10 µM for Cc1cc(C(=O)N2CCc3nc(N4CCCC4)nc(C)c3CC2)c(C)o1 ? Thanks!
Output: -108

Task: Note cytotoxicity at 10 µM for the compound shown: Cc1ccn(CCC(=O)NC(C)Cc2ccco2)n1 (centres undefined)
Output: -4.1

Task: Dear colleague, please send me the reported cytotoxicity at 10 µM for CC(=O)N[C@@H]1CN(Cc2cccs2)C[C@H]1c1ccc(C)o1 when you can.
Output: 6.54

Task: Report cytotoxicity at 10 µM for CC(C)c1nnsc1CN1CCc2[nH]nc(-c3ccc(F)c(F)c3)c2C1
Output: 25.9

Task: Respond only with cytotoxicity at 10 µM recorded for CC(C)COc1cncc(N2CCCN(c3ncccn3)CC2)n1
Output: -2.38

Task: For the compound O=C(Nc1ccccc1F)C1CN(C(=O)c2ccc3c(c2)OCO3)C1 , give its reported cytotoxicity at 10 µM.
Output: -5.96

Task: Look up cytotoxicity at 10 µM of O=S(=O)(NCC1(c2cccs2)CCOCC1)c1cccnc1 and report it.
Output: -3.51

Task: Using known records, supply cytotoxicity at 10 µM for CCCc1nc(CN2CCCC2Cn2cccn2)cs1 (centres undefined)
Output: -4.45

Task: Supply measured cytotoxicity at 10 µM of COCc1cn(C[C@H]2CC3CCN2C[C@@H]3C(=O)Nc2ccccc2)nn1 (some centres undefined) in your reply.
Output: -0.522

Task: Dear colleague, please send me the reported cytotoxicity at 10 µM for Cc1ccc(CC(=O)NC(C)C(=O)N2CCS(=O)(=O)CC2)cc1 (centres undefined) when you can.
Output: 1.73

Task: Output measured cytotoxicity at 10 µM for this item: CN(C(=O)c1ccc(C#N)cc1)c1nnc(C2CCOC2)s1 (centres undefined)
Output: 0.36

Task: State its cytotoxicity at 10 µM for this compound: O=C(c1cn(CCN2CCCCC2)nn1)N1CCCO1
Output: 5.87

Task: Determine its reported cytotoxicity at 10 µM: COc1ncccc1CNC(=O)c1ccc(C)[nH]c1=O
Output: -2.22

Task: Tell me measured cytotoxicity at 10 µM for Cn1cc(C2CCCN2Cc2csc(C3CCCC3)n2)cn1 (centres undefined) please.
Output: 8.3

Task: Hello, please tell me recorded cytotoxicity at 10 µM for this one: CCC(Nc1ncccn1)c1cccnc1 (centres undefined)
Output: 5.84

Task: Please list cytotoxicity at 10 µM recorded for the compound CCSc1cc(C(=O)NC(C)c2cccc(N3CCOC3=O)c2)ccn1 (centres undefined)
Output: 24.1

Task: Using the record for CCN1CCN(S(=O)(=O)N2CCCCCC2)[C@H]2CS(=O)(=O)C[C@H]21 , state its measured cytotoxicity at 10 µM.
Output: 1.58

Task: Tell me cytotoxicity at 10 µM reported for CSc1nc(C2CC2)nc(C)c1C(=O)NCc1ncc(C)o1
Output: -3.71

Task: Supply cytotoxicity at 10 µM value. Item: Cn1ccnc1CN1CCCN(Cc2noc(C3CC3)n2)CC1
Output: -3.33

Task: Give cytotoxicity at 10 µM for CC(C)N(C)CCNC(=O)N1CCN(Cc2ccon2)CC1
Output: -1.58
